Consider the following binders and their measured Kd readings.
target_or_test_system: T1, human CD3e/d (human, UniProt P07766 23-126; P04234 22-105)
T1 construct: Bought soluble protein; also called hCD3e/d; human CD3/ed (Sino CT038-H2508H)
T1 sequence (P07766 23-126, chain 1 of 2): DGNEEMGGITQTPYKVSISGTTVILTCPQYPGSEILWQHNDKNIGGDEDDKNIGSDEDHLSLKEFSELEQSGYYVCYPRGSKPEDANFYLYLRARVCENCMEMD
T1 sequence (P04234 22-105, chain 2 of 2): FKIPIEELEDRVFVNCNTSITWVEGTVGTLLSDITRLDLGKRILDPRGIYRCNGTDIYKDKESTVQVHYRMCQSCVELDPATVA
test_summary: SPR (Carterra LSA), mAb on chip
Just the number please, in nM, no unit attached.

The cases that follow already have their Kd on record.
mAb 192 (antibody, V domains shown, VH and VL only) VH: QVQLVESGGGVVQPGRSLRLSCAASGFTFSGYGMHWVRQAPGKGLEWVAIIYYNGKKEYYADSVKGRFTISRDNSKNTLYLQMNSLRAEDTAVYYCTRGEGYNWFDPWGQGILVTVSS VL: EIVMTQSPATLSVSPGERATLSCRASQSVSSNLAWYQQKPGQAPRLLIYGASTRATGIPARFSGSGSGTEFTLTISSLQSEDFAVYYCKQYKNWPLTFGGGTKVEIK: 9.2
mAb 49 (antibody, V domains shown, VH and VL only) VH: EVQLVESGGGLVPPGGSLRLSCVASGFTLRSYTMNWVRQAPGQGLEWISYISSTSRTIYYSDSVKGRFTISRDNAKNSLYLQVNSLRDEDTALYYCAREDYYDSSGFDCWGQGTLVTVSS VL: AIRMTQSPSSFSASTGDRVTITCRASQGIFNYLAWYQQKPGKAPKLLIYSTSTLQSGVPSRFSGSGSGTDFTLTIRGLQSEDLATYYCQQYYSFPRTFGQGTKVDIK: 10.8
mAb 263 (antibody, V domains shown, VH and VL only) VH: EVQLLESGGGLVQPGGSLRLSCTPSGITFNNYAMTWVRQAPGKGLEWVSGISVSGGSTYYADSVMGRFTISRDSSKTLYLQMNSLRAEDTAVYYCAKFHSHYYYYMDVWGKGTTVTVSS VL: SYELTQPLSVSVALGQTARITCGGNNIGSKDVHWYQQKPGQAPVLVIYRDSNRPSGIPERFSGSNSGNTATLTISRAQAGDEADYYCQVWDRRTAVFGGGTQLTAL: 9
mAb 216 (antibody, V domains shown, VH and VL only) VH: QVQLVESGGGVVQPGRSLRLSCAASGFTFSGYGMHWVRQAPGKGLEWVAIIYYNGKKEYYADSVKGRFTISRDNSKNTLYLQMNSLRAEDTAVYYCTRGEGYNWFDPWGQGTLVTVSS VL: EIVMTQSPATLSVSPGERATLSCRASQSVSSNLAWYQQKPGQAPRLLIYGASTRATGIPARFSGSGSGTEFTLTISSLQSEDFAVYYCKQYKNWPLTFGGGTKVEIK: 9.3

Request: # lookup: Kd of mAb 251 (antibody, V domains shown, VH and VL only) VH: EVQILESGGGLVQPGGSLRLSCVASGFTFRSYVMSWVRRAPGRGLEWVSGISASGGNTYYADSVKGRFTISRDNSKNTLFLQMNGLRAEDTAVYYCAKLFSYYYYFMDVWGKGTTVTVSS VL: SYELTQPLSVSVALGQTARITCGGNNIGSKDVHWYQQKPGQAPVLVIYRDSNRPSGIPERFSGSNSGNTATLTISGAQAGDEADYYCQVWDRRTAVFGGGTQLTAL
Response: 24

Data provenance is patent US20230295310A1.
